- Test system: P-gp (MDR1)
- protocol description: in vitro
- condition context: dog, MDCK-MDR1, pH 8
assay readout: Papp B→A (×10⁻⁶ cm/s)
The reply should contain only the number, in ×10⁻⁶ cm/s.

Task: Given the compound C[C@H]1O[C@@H](O[C@H]2[C@@H](O)C[C@H](O[C@H]3[C@@H](O)C[C@H](O[C@H]4CC[C@@]5(C)[C@H](CC[C@@H]6[C@@H]5C[C@@H](O)[C@]5(C)[C@@H](C7=CC(=O)OC7)CC[C@]65O)C4)O[C@@H]3C)O[C@@H]2C)C[C@H](O)[C@@H]1O , what is its reported Papp B→A?
Output: 16.3

Task: Given the compound COc1cccc2c1C(=O)c1c(O)c3c(c(O)c1C2=O)C[C@@](O)(C(=O)CO)C[C@@H]3O[C@H]1C[C@H](N)[C@H](O)[C@H](C)O1 , what is its reported Papp B→A?
Output: 4.4

Task: Given the compound CCCC(=O)Nc1ccc(OCC(O)CNC(C)C)c(C(C)=O)c1 (centres unmarked) , what is its reported Papp B→A?
Output: 16.7

Task: Given the compound COc1cc([C@@H]2c3cc4c(cc3[C@@H](O[C@@H]3O[C@@H]5CO[C@@H](C)O[C@H]5[C@H](O)[C@H]3O)[C@H]3COC(=O)[C@H]23)OCO4)cc(OC)c1O [Etoposide] , what is its reported Papp B→A?
Output: 2.8

Task: Given the compound COc1cc2c(c(OC)c1OC)-c1ccc(OC)c(=O)cc1[C@@H](NC(C)=O)CC2 , what is its reported Papp B→A?
Output: 6.33

The reported measurements were obtained from paper PMC11637191.
